# Test system: HBV rcDNA
# assayInfo: HepDE19 assay with bDNA quantitation of HBV rcDNA
# Assay type: cell-based, hepatitis B virus
# appliedConditions: Hepatitis B virus, HepDE19, HepDE19 assay, inhibition of formation of rcDNA; read-out: DE-19bDNA EC50
pEC50: −log10 of the molar value.
Would you please tag the item Yes when its pEC50 is 6 or above, and No when it is below?

Previously resolved entries follow.
[
  {
    "compound": "C[C@@H](c1c[nH]c(=O)c2ccccc12)N(C)C(=O)Nc1ccc(F)c(Cl)c1 [Compound 13]",
    "assignedCategory": "No"
  },
  {
    "compound": "COc1ncc(C(C)N(CCNCC(F)(F)F)C(=O)Nc2ccc(F)c(Cl)c2)c2ccccc12 (racemic) [Compound 158]",
    "assignedCategory": "No"
  },
  {
    "compound": "C[C@H](c1c[nH]c(=O)c2ccccc12)N(CC(F)F)C(=O)Nc1ccc(F)c(Cl)c1 [Compound 96]",
    "assignedCategory": "Yes"
  },
  {
    "compound": "CC(C)CN(C(=O)Nc1ccc(F)c(Cl)c1)C(C)c1c[nH]c(=O)c2cnccc12 (racemic) [Compound 154]",
    "assignedCategory": "Yes"
  },
  {
    "compound": "CC(c1c[nH]c(=O)c2ccccc12)N(Cc1nnc[nH]1)C(=O)Nc1ccc(F)c(Cl)c1 (single isomer, unassigned) [Compound 268]",
    "assignedCategory": "No"
  }
]

Reported pEC50 at or above 6? CNC(=O)CCN(C(=O)Nc1ccc(F)c(Cl)c1)C(C)c1c[nH]c(=O)c2ccccc12 (racemic) [Compound 104] Yes

Reported pEC50 at or above 6? COc1ncc([C@@H](C)N(CC(F)(F)F)C(=O)Nc2ccc(F)c(Cl)c2)c2ccccc12 [Compound 101] Yes

Reported pEC50 at or above 6? CC(c1c[nH]c(=O)c2cnccc12)N(C)C(=O)Nc1ccc(F)c(Cl)c1 (centres unmarked) [Compound 111] Yes

Reported pEC50 at or above 6? CC(c1c[nH]c(=O)c2cc(F)ccc12)N(C)C(=O)Nc1ccc(F)cc1 (racemic) [Compound 258] Yes

Reported pEC50 at or above 6? COc1ncc(CNC(=O)Nc2ccc(F)c(C)c2)c2ccccc12 [Compound 7] No

Reported pEC50 at or above 6? CC(c1c[nH]c(=O)c2cc(Cl)ccc12)N(C)C(=O)Nc1ccc(F)c(Cl)c1 (racemic) [Compound 271] Yes

Reported pEC50 at or above 6? COc1ncc(CNC(=O)Nc2ccc(F)c(Cl)c2)c2ccccc12 [Compound 6] No

Reported pEC50 at or above 6? CC(C)CN(C(=O)Nc1ccc(F)cc1)C(C)c1cn(CC(F)(F)F)c(=O)c2ccccc12 (racemic) [Compound 235] Yes

Reported pEC50 at or above 6? COc1ncc(C(C)N(C)C(=O)Nc2ccc(F)c(Cl)c2)c2ccccc12 (single isomer, unassigned) [Compound 30] Yes

Reported pEC50 at or above 6? CC(c1c[nH]c(=O)c2ccccc12)N(C)C(=O)Nc1ccc(F)c(Cl)c1 (racemic) [Compound 12] Yes

Reported pEC50 at or above 6? COc1ncc(C(C)N(C)C(=O)Nc2ccc(F)c(Cl)c2)c2nccnc12 (racemic) [Compound 137] No

Reported pEC50 at or above 6? CC(c1c[nH]c(=O)c2ccccc12)N(CC1CCOCC1)C(=O)Nc1ccc(F)c(Cl)c1 (racemic) [Compound 134] Yes

Taken from patent US20230045421A1.
